target: GnRH receptor (Homo sapiens); test: NFAT reporter (luciferase) gene expression assay for antagonistic effect on GnRH receptor, HEK293 transformed with pcDNA3.1/GnRH receptor and pGL4/NFAT promoter; type: cell-based; conditions: compound at 100 nM; leuprolide acetate as ligand; HEK293; read-out: NFAT reporter activity inhibition (%) at 100 nM
Sequence (P30968 whole entry): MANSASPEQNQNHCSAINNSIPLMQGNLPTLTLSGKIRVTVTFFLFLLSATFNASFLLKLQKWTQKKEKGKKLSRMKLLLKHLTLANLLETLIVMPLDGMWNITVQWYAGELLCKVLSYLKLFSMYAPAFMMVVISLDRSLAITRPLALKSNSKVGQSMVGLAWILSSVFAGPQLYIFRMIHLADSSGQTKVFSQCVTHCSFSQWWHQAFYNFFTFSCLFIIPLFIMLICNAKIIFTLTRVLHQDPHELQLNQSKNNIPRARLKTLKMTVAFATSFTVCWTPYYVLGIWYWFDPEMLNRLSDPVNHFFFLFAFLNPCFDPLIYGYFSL
measured.parameter: inhibition at 0.1 µM (%)
Answer with a number only, understood to be in %.

Worked examples, 5 compounds total:
compound=N[C@@H](Cn1c(=O)c2c(n(Cc3c(F)cccc3C(F)(F)F)c1=O)CCC21CCN(Cc2ccc(C(F)(F)F)o2)CC1)c1ccccc1 observed_value=99
compound=N[C@@H](Cn1c(=O)c2c(n(Cc3c(F)cccc3C(F)(F)F)c1=O)COC21CCN(Cc2cocn2)CC1)c1ccccc1 observed_value=18
compound=N[C@@H](Cn1c(=O)c2c(n(Cc3c(F)cccc3F)c1=O)COC21CCN(Cc2ccc(C(F)(F)F)o2)CC1)c1ccccc1 observed_value=82
compound=COC(=O)c1cccc(CN2CCC3(CC2)OCc2c3c(=O)n(C[C@H](N)c3ccccc3)c(=O)n2Cc2c(F)cccc2C(F)(F)F)c1 observed_value=89
compound=N[C@@H](Cn1c(=O)c2c(n(Cc3c(F)cccc3C(F)(F)F)c1=O)COC21CCN(Cc2cccc3nonc23)CC1)c1ccccc1 observed_value=56

Simply: CONC(=O)Nc1cccc(C(Cn2c(=O)c3c(n(Cc4c(F)cccc4C(F)(F)F)c2=O)COC32CCN(Cc3ccc(C(F)(F)F)o3)CC2)NC(=O)OC(C)(C)C)c1 (stereo not drawn) , GnRH receptor (Homo sapiens), inhibition at 0.1 µM = 100

Simply: `N[C@@H](Cn1c(=O)c2c(n(Cc3c(F)cccc3C(F)(F)F)c1=O)COC21CCN(Cc2ccc(Cl)cc2)CC1)c1ccccc1` , GnRH receptor (Homo sapiens), inhibition at 0.1 µM = 30

Simply: `N[C@@H](Cn1c(=O)c2c(n(Cc3c(F)cccc3C(F)(F)F)c1=O)COC21CCN(Cc2ccccc2F)CC1)c1ccccc1` , GnRH receptor (Homo sapiens), inhibition at 0.1 µM = 58

Simply: `Cc1ccccc1CN1CCC2(CC1)OCc1c2c(=O)n(C[C@H](N)c2ccccc2)c(=O)n1Cc1c(F)cccc1C(F)(F)F` , GnRH receptor (Homo sapiens), inhibition at 0.1 µM = 22
